Target: T1, TIGIT (UniProt Q495A1 22-141, limits assumed)
T1 construct: also called T cell immunoreceptor with Ig and ITIM domains; hTIGIT
T1 sequence (looked up): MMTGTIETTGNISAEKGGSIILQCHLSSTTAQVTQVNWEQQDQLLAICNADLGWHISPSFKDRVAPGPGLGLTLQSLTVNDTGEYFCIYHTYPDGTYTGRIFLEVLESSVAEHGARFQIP
Test: SPR, VHH-V5-His
Known kon of a selection of binders
Could you kindly put the unit after your number?

binder	reported-result
TIGIT-31-32 (VHH-V5-His) (VHH, not shown: V5-His tag) VHH: EVQLVESGGGLVQPGGSLRLSCAASGFTFSTSWMGWFRQAPGKERELVAAMTSGGGTNYADSVKGRFTISADNSKNTAYLQMNSLKPEDTAVYYCAADVWYGSTWRNWGQGTLVTVSS	60000 M⁻¹ s⁻¹
TIGIT-31-08 (VHH-V5-His) (VHH, also called TIGIT-31-8; 31-8; not shown: V5-His tag) VHH: EVQLVESGGGLVQPGGSLRLSCAASGFTFSTSWMGWFRQAPGKERELVAARNSGGNTNYADSVKGRFTISADNSKNTAYLQMNSLKPEDTAVYYCAADVWYGSTWRNWGQGTLVTVSS	40000 M⁻¹ s⁻¹
TIGIT-30-54 (VHH-V5-His) (VHH, not shown: V5-His tag) VHH: EVQLVESGGGLVQAGGSLRLSCAASGFTFRSFGMGWFRQAPGKEREFVASTIWSRGDTYYADSVKGRFTISADNAKNTVYLQMNSLKPEDTAVYYCASSPYGPLYRSTHYYDWGQGTQVTVSS	30000 M⁻¹ s⁻¹
TIGIT-31-47 (VHH-V5-His) (VHH, not shown: V5-His tag) VHH: EVQLVESGGGLVQPGGSLRLSCAASGFTFSGNWMGWFRQAPGKEREWVVGISSGGTPHYADSVKGRFTISADNSKNTAYLQMNSLKPEDTAVYYCAADVWYGSTWRNWGQGTLVTVSS	20000 M⁻¹ s⁻¹
TIGIT-31-20 (VHH-V5-His) (VHH, not shown: V5-His tag) VHH: EVQLVESGGGLVQPGGSLRLSCAASGFTFSGNWMGWFRQAPGKEREFVAGILSDGRELYADSVKGRFTISADNSKNTAYLQMNSLKPEDTAVYYCAADVWYGSTWRNWGQGTLVTVSS	10000 M⁻¹ s⁻¹

# input Report kon for TIGIT-31-34 (VHH-V5-His) (VHH, not shown: V5-His tag) VHH: EVQLVESGGGLVQPGGSLRLSCAASGRSRYGMGWFRQAPGKEREFVSAISWSGISTYYADSVKGRFTISADNSKNTAYLQMNSLKPEDTAVYYCAATQWGSSGWKQARWYDWGQGTLVTVSS please.
# output 400 M⁻¹ s⁻¹

# input Report kon for TIGIT-31-01 (VHH-V5-His) (VHH, also called TIGIT-31-1; 31-1; not shown: V5-His tag) VHH: EVQLVESGGGLVQPGGSLRLSCAASGFTFDRSWMGWFRQAPGKEREVVASITSGGSTYYADSVKGRFTISADNSKNTAYLQMNSLKPEDTAVYYCAADVWYGSTWRNWGQGTLVTVSS please.
# output 20000 M⁻¹ s⁻¹

# input Report kon for TIGIT-31-26 (VHH-V5-His) (VHH, not shown: V5-His tag) VHH: EVQLVESGGGLVQPGGSLRLSCAASGFTFDRSWMGWFRQAPGKERELVAAITSGGSTYYADSVKGRFTISADNSKNTAYLQMNSLKPEDTAVYYCAADVWYGSTWRNWGQGTLVTVSS please.
# output 20000 M⁻¹ s⁻¹

Source listed as patent US20260184782A1.
